CLhep predicted for assorted compounds
experiment: in vitro; details: human, liver microsomes
Readout Name: CLhep predicted (mL/min/kg)

- Sample Smiles: "CC1=C(c2ccc(F)cc2)[C@H](c2ccc(OCCN3CC(CF)C3)cc2)Oc2c(O)cccc21"
  Observed Measurement: 9
- Sample Smiles: "CC1=C(c2ccc(F)cc2)[C@H](c2ccc(OCCN3CC(CF)C3)cc2)Oc2ccc(O)cc21"
  Observed Measurement: 10
- Sample Smiles: "CCC1=C(c2cccc(O)c2)[C@H](c2ccc(OCCN3CC(CF)C3)cc2)Oc2ccc(O)cc21"
  Observed Measurement: 12
- Sample Smiles: "CC1=C(c2ccc(F)cc2)[C@H](c2ccc(OCCN3CC(CF)C3)cc2)Oc2cc(F)c(O)cc21"
  Observed Measurement: 8
- Sample Smiles: "Oc1cccc(C2=Cc3cc(O)ccc3O[C@H]2c2ccc(OCCN3CC(CF)C3)cc2)c1"
  Observed Measurement: 12
- Sample Smiles: "CC1=C(c2cccc(O)c2)[C@H](c2ccc(OCCN3CC(CF)C3)cc2)Oc2c(O)cccc21"
  Observed Measurement: 9
- Sample Smiles: "CC1=C(c2cccc(O)c2)[C@H](c2ccc(OCCN3CC(CF)C3)cc2)Oc2ccc(O)cc21"
  Observed Measurement: 12
